Reported EC50 is given for each of the following compounds.
test system: WEEV California; assay: microbe, parasite or virus in culture; format: cell-based; settings: Western equine encephalitis virus, Vero 76, 48 h, read-out: WEEV California EC50 nM

Previously resolved entries follow.
# COMPOUND, TGT, EC50
measured = [
    ("COc1ccc(-n2c([C@H]3CCCN3)nc3c(-c4ccncc4)cc(C#N)cc3c2=O)cc1F", "WEEV California", "1 to 50 nM"),
    ("COc1ccc(-n2c(-c3nccn3C)nc3c(-c4ccc(C)nc4)cc(C#N)cc3c2=O)cc1F", "WEEV California", "151 to 500 nM"),
    ("COc1ccc(-n2c(C3CCCN3)nc3c(N4CCC(N5CCOCC5)CC4)cc(C#N)cc3c2=O)cc1F (stereo not drawn)", "WEEV California", "51 to 150 nM"),
    ("COc1ccc(-n2c([C@H]3CCCN3)nc3c(-c4ccncc4)cc([N+](=O)[O-])cc3c2=O)cc1F", "WEEV California", "1 to 50 nM"),
    ("COc1ccc(-n2c(C3CCCN3)nc3c(CCc4ccc(C)nc4)cc(C#N)cc3c2=O)cc1F (stereo not drawn)", "WEEV California", "51 to 150 nM"),
]

What measured EC50 goes with CN[C@@H](C)c1nc2ccc([N+](=O)[O-])cc2c(=O)n1-c1ccc(OC)cc1 ?
151 to 500 nM

What measured EC50 goes with Cc1cccc(-n2c([C@H]3CCCN3)nc3ccc([N+](=O)[O-])cc3c2=O)c1 ?
501 to 1000 nM

What measured EC50 goes with COc1ccc(-n2c(C3CCCN3)nc3c(-c4ccc(N5CCOCC5)cc4)cc(C#N)cc3c2=O)cc1F (stereo not drawn) ?
1 to 50 nM

What measured EC50 goes with COc1ccc(-n2c(-c3cnco3)nc3c(-c4ccc(C)nc4)cc(C#N)cc3c2=O)cc1F ?
> 1000 nM

What measured EC50 goes with COc1ccc(-n2c([C@@H]3CCCN3)nc3c(C(F)(F)F)cc(C#N)cc3c2=O)cc1F ?
1 to 50 nM

What measured EC50 goes with COc1ccc(-n2c([C@@H]3CCCN3)nc3ccc(F)c(F)c3c2=O)cc1 ?
> 1000 nM

What measured EC50 goes with Cc1cc([N+](=O)[O-])cc2c(=O)n(-c3ccc(Cl)c(F)c3)c([C@H]3CCCN3)nc12 ?
1 to 50 nM

----------
Reported EC50 is given for each of the following molecules.
test system: WEEV California; test: microbe, parasite or virus in culture; type: cell-based; conditions: Western equine encephalitis virus, Vero 76, 48 h, read-out: WEEV California EC50 nM

What measured EC50 goes with COc1ccc(-n2c(C3CCCN3)nc3c(-c4ccc(N(C)C)nc4)cc(C#N)cc3c2=O)cc1F (centres unmarked) ?
1 to 50 nM

What measured EC50 goes with COc1ccc(-n2c([C@@H]3CCCN3)nc3c(-c4ccncc4)cc([N+](=O)[O-])cc3c2=O)cc1F ?
1 to 50 nM

What measured EC50 goes with COc1ccc(-n2c([C@H]3CCCCN3)nc3ccc([N+](=O)[O-])cc3c2=O)cc1 ?
151 to 500 nM

What measured EC50 goes with COc1ccc(-n2c([C@H]3CCCN3C)nc3c(-c4cn(C)cn4)cc(C#N)cc3c2=O)cc1F ?
1 to 50 nM

What measured EC50 goes with O=c1c2cc([N+](=O)[O-])ccc2nc([C@H]2CCCN2)n1-c1ccc(Cl)cc1 ?
1 to 50 nM

----------
test system: WEEV California; experiment: microbe, parasite or virus in culture; assay type: cell-based; details: Western equine encephalitis virus, Vero 76, 48 h, read-out: WEEV California EC50 nM
MEASUREMENT KIND: EC50

Previously resolved entries follow.
# MOLECULE, EC50
data = [
    ("COc1ccc(-n2c([C@H]3CCCN3)nc3c(N4CCOCC4)cc(C#N)cc3c2=O)cc1F [Example 113]", "51 to 150 nM"),
    ("COc1c(F)cc(-n2c(C3CCCN3)nc3c(-c4ccc(C(C)(C)O)cc4)cc(C#N)cc3c2=O)cc1F (stereo not drawn) [Example 171]", "51 to 150 nM"),
    ("COc1ccc(-n2c([C@@H]3CCCN3)nc3c(C(F)(F)F)cc(C#N)cc3c2=O)cc1 [Example 75]", "51 to 150 nM"),
]

What measured EC50 goes with COc1ccc(-n2c([C@H]3CCCN3)nc3c(C)cc([N+](=O)[O-])cc3c2=O)cc1F [Example 59] ?
1 to 50 nM

What measured EC50 goes with [N-]=[N+]=Nc1cccc(-n2c([C@H]3CCCN3)nc3ccc([N+](=O)[O-])cc3c2=O)c1 [Example 17] ?
> 1000 nM

What measured EC50 goes with O=c1c2cc([N+](=O)[O-])ccc2nc(C2CCN2)n1-c1ccccc1 (stereo not drawn) [Example 27] ?
> 1000 nM

----------
Reported EC50 is given for each of the following molecules.
system: VEEV TC83; assay: microbe, parasite or virus in culture; format: cell-based; settings: Venezuelan equine encephalitis virus, Vero 76, 48 h, read-out: VEEV TC83 EC50 nM

Previously resolved entries follow.
# MOLECULE, EC50
rows = [
    ("COc1ncc(-n2c(C34CC(CN3)C4)nc3c(-c4ccc(C)nc4)cc(C#N)cc3c2=O)cn1", "> 1000 nM"),
    ("COc1ccc(-n2c(-c3cocn3)nc3c(-c4ccc(C)nc4)cc(C#N)cc3c2=O)cc1F", "501 to 1000 nM"),
    ("COc1ccc(-n2c([C@@H]3CCCN3)nc3c(-c4ccncc4)cc(C#N)cc3c2=O)cc1F", "1 to 50 nM"),
    ("Cc1cccc(-n2c([C@H]3CCCN3)nc3ccc([N+](=O)[O-])cc3c2=O)c1", "51 to 150 nM"),
    ("COc1ccc(-n2c(C3CCCN3)nc3c(-c4cnc(OC)c(OC)c4)cc(C#N)cc3c2=O)cc1F (stereo not shown)", "1 to 50 nM"),
    ("COc1ccc(-n2c([C@@H]3CCNC3)nc3c(C)cc([N+](=O)[O-])cc3c2=O)cc1F", "151 to 500 nM"),
]

// fetch VEEV TC83 EC50 for COc1c(F)cc(-n2c(C34CC(CN3)C4)nc3c(-c4cnc(C)c(C)c4)cc(C#N)cc3c2=O)cc1F
1 to 50 nM

----------
system: WEEV California; assay: microbe, parasite or virus in culture; type: cell-based; details: Western equine encephalitis virus, Vero 76, 48 h, read-out: WEEV California EC50 nM
MEASUREMENT KIND: EC50

What measured EC50 goes with CNCc1nc2ccc([N+](=O)[O-])cc2c(=O)n1-c1ccc(OC)cc1 ?
> 1000 nM

What measured EC50 goes with COc1ccc(-n2c([C@H]3CCCN3)nc3c(-c4cccnc4)cc([N+](=O)[O-])cc3c2=O)cc1 ?
1 to 50 nM

What measured EC50 goes with COc1ccc(-n2c([C@H]3C[C@H](F)CN3)nc3c(C)cc(C#N)cc3c2=O)cc1F ?
151 to 500 nM

----------
tested on: WEEV California; test: microbe, parasite or virus in culture; type: cell-based; details: Western equine encephalitis virus, Vero 76, 48 h, read-out: WEEV California EC50 nM
Reported EC50 is given for each of the following compounds.

Previously resolved entries follow.
# COMPOUND, TGT, EC50
records = [
    ("O=c1c2cc([N+](=O)[O-])ccc2nc([C@@H]2CCCN2C2CCOCC2)n1-c1ccccc1 [Example 6]", "WEEV California", "> 1000 nM"),
    ("COc1ccc(-n2c(C[C@H]3CCCN3)nc3c(-c4ccc(C)nc4)cc(C#N)cc3c2=O)cc1F [Example 117]", "WEEV California", "501 to 1000 nM"),
    ("COc1c(F)cc(-n2c(C3CCCN3)nc3c(-c4ccnc(C)c4)cc(C#N)cc3c2=O)cc1F (stereo not shown) [Example 155]", "WEEV California", "1 to 50 nM"),
]

What measured EC50 goes with COc1c(F)cc(-n2c(C3CCCN3)nc3c(-c4cc(C)nc(C)c4)cc(C#N)cc3c2=O)cc1F (stereo not shown) [Example 159] ?
51 to 150 nM

----------
test system: WEEV California; test: microbe, parasite or virus in culture; assay type: cell-based; settings: Western equine encephalitis virus, Vero 76, 48 h, read-out: WEEV California EC50 nM
MEASUREMENT KIND: EC50

# SMILES REPRESENTATION, TEST VALUE
rows = [
    ("COc1ccc(-n2c([C@H]3CCCN3)nc3c([N+](=O)[O-])cccc3c2=O)cc1", "> 1000 nM"),
    ("COc1ccc(-n2c([C@@H]3CCCN3)nc3ccc([N+](=O)[O-])cc3c2=O)cc1", "151 to 500 nM"),
]

// next item, EC50 requested
What measured EC50 goes with COc1c(F)cc(-n2c(C34CC(CN3)C4)nc3c(-c4cc(C)nc(C)c4)cc(C#N)cc3c2=O)cc1F ?
51 to 150 nM

Where do these numbers come from? They come from patent US20220348558A1.
